Value source: patent US9193695B2

Target: Human V1b receptor (Homo sapiens)
Sequence (P47901 1-424): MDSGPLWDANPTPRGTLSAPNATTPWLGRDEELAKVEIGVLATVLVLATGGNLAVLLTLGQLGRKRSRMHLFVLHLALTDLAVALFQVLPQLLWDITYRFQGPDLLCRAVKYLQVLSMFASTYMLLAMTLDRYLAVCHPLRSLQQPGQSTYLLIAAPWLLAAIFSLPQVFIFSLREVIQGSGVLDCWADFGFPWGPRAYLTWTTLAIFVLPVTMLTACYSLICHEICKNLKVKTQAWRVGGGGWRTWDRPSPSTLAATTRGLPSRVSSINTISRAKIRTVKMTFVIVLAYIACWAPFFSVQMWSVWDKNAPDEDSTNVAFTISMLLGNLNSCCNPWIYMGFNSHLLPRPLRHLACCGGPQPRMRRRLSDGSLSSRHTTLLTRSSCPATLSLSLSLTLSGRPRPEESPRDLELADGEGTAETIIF
Experiment: Measurement of V1b receptor antagonistic activity (AVP-induced fluorescence, Fluo-4, FDSS)
Type: cell-based
Parameters: expressed in transfected cells
Settings: CHO cells stably expressing human V1b receptor; AVP 2.5 nmol/L; 30 minutes preincubation; read-out: IC50 value (V1b receptor antagonistic activity)
Overview of recorded IC50 for various compounds

# compound, IC50 [nM]
records = [
    ("CC(C)NC(=O)Cn1c(-c2cccc(Cl)c2)nn(-c2ccc(CCN3C4CCC3CC(O)C4)cc2)c1=O (stereo not drawn)", 23),
    ("COc1cc(-c2nn(-c3ccc(CCN4CCOCC4)cc3)c(=O)n2CC(=O)NC(C)C)ccc1F", 11),
    ("CC(C)NC(=O)Cn1c(-c2cccc(Cl)c2)nn(-c2ccc(CCN3C4CCC3COC4)cn2)c1=O", 29),
    ("COc1cc(-c2nn(-c3ccc(CCN4CCOCC4)cn3)c(=O)n2CC(=O)NC(C)C)ccc1F", 26),
    ("COc1cccc(-c2nn(-c3ccc(CCN4CCOCC4)cc3)c(=O)n2CC(=O)NC(C)C)c1", 30),
    ("CC(C)NC(=O)Cn1c(-c2cccc(Cl)c2)nn(-c2ccc(CCN3CCOCC3)cn2)c1=O", 13),
]

###

molecular target: Human V1b receptor (Homo sapiens, UniProt P47901); experiment: Binding test for V1b receptor ([3H]AVP displacement, crude membrane preparation); parameters: expressed in transfected cells; host or cells: 293FT cells (Invitrogen), transient expression; crude membrane preparation; conditions: [3H]AVP 0.4 to 1 nmol/L; membranes of 293FT cells transiently expressing human V1b receptor; room temperature, 60 minutes
Rule for this label: Condition met means IC50 is less than 20 nM; Condition not met means IC50 is at least 20 nM.

# compound, measured.on, qualitative.label
measured = [
    ("O=C(Cn1c(-c2cccc(Cl)c2)nn(-c2ccc(CCN3CCOCC3)cc2)c1=O)NC1CCC1", "Human V1b receptor (Homo sapiens, UniProt P47901)", "Condition not met"),
    ("CC(C)NC(=O)Cn1c(-c2cccc(Cl)c2)nn(-c2ccc(CCN3CCOCC3)nc2)c1=O", "Human V1b receptor (Homo sapiens, UniProt P47901)", "Condition not met"),
    ("COc1cccc(-c2nn(-c3ccc(CC(C)N4C5CCC4COC5)cn3)c(=O)n2CC(=O)NC(C)(C)C)c1 (stereo not shown)", "Human V1b receptor (Homo sapiens, UniProt P47901)", "Condition met"),
    ("CC(C)NC(=O)Cn1c(-c2ccc(F)c(Cl)c2)nn(-c2ccc(CCN3CC4(COC4)C3)cc2)c1=O", "Human V1b receptor (Homo sapiens, UniProt P47901)", "Condition not met"),
    ("COc1cc(-c2nn(-c3ccc(CCN4CCSCC4)cc3)c(=O)n2CC(=O)NC(C)C)ccc1F", "Human V1b receptor (Homo sapiens, UniProt P47901)", "Condition met"),
    ("CC(C)NC(=O)Cn1c(-c2ccc(F)c(Cl)c2)nn(-c2ccc(CCN3CCCCC3)cn2)c1=O", "Human V1b receptor (Homo sapiens, UniProt P47901)", "Condition met"),
    ("CC(C)NC(=O)Cn1c(-c2cccc(F)c2)nn(-c2ccc(CCN3CCOCC3)cc2)c1=O", "Human V1b receptor (Homo sapiens, UniProt P47901)", "Condition not met"),
    ("CC(C)NC(=O)Cn1c(-c2cccc(Cl)c2)nn(-c2ccc(CCN3C4CCC3COC4)cn2)c1=O", "Human V1b receptor (Homo sapiens, UniProt P47901)", "Condition met"),
    ("CC(C)(CO)NC(=O)Cn1c(-c2cccc(Cl)c2)nn(-c2ccc(CCN3CCOCC3)cc2)c1=O", "Human V1b receptor (Homo sapiens, UniProt P47901)", "Condition not met"),
    ("COc1cc(-c2nn(-c3ccc(CCN4CCOCC4)cn3)c(=O)n2CC(=O)NC(C)C)ccc1F", "Human V1b receptor (Homo sapiens, UniProt P47901)", "Condition met"),
    ("CC(C)NC(=O)Cn1c(-c2ccc(F)c(Cl)c2)nn(-c2ccc(CCN3C4CCC3COC4)cn2)c1=O", "Human V1b receptor (Homo sapiens, UniProt P47901)", "Condition met"),
]
